SYSTEM_UNDER_TEST: Homeobox protein SIX1 (Homo sapiens) + Protein phosphatase EYA2 (Homo sapiens) (UniProt Q15475+O00167)
Sequence (O00167 whole entry, looked up): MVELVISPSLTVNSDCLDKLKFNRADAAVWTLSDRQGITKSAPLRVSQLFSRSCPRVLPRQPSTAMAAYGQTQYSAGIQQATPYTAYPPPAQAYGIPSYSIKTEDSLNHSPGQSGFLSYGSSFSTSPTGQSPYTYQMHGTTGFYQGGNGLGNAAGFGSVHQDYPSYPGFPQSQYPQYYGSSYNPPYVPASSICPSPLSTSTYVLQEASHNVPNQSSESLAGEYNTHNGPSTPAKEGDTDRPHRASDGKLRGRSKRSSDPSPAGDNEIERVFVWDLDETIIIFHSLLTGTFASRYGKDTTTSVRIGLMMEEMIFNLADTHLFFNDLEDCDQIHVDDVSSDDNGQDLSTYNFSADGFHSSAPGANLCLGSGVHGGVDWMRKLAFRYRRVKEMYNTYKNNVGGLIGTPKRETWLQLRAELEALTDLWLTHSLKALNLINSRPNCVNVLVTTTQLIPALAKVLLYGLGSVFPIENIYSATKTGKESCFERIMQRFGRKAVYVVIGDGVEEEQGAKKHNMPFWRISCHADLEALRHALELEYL
Sequence (Q15475 whole entry, looked up): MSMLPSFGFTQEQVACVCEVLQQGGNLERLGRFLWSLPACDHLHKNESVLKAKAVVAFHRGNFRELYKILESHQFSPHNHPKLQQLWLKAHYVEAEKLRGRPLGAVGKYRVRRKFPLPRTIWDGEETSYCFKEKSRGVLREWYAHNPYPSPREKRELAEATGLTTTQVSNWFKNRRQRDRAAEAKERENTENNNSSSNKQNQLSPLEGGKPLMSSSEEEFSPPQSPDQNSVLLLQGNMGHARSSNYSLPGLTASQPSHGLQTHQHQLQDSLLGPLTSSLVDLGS
ASSAY_REMARKS: qHTS Assay for Inhibitors of the Six1/Eya2 Interaction; note: % is set by controls: 0 for no effect and ±100 for the full control effect
ASSAY_SETUP: AlphaScreen GST-Six1/His-Eya2 binding, biochemical; stronger effect = lower value
About 2,000 (0.56%) of roughly 360,000 compounds were called active. Inconclusive results (about 2%) are left out. This excerpt belongs to a sample that is enriched for actives.
Quick reference: activity change of the listed items.

[
  {
    "COMPOUND": "Cc1cccc(NC(=O)c2cccc(S(=O)(=O)N3CCCC3)c2)n1",
    "READOUT_UNITS": "%",
    "activity change": -10.7
  },
  {
    "COMPOUND": "Cc1cc([N+](=O)[O-])c(N2CCC[C@@H]2C(=O)O)c([N+](=O)[O-])c1",
    "READOUT_UNITS": "%",
    "activity change": 7.42
  },
  {
    "COMPOUND": "COc1ccc(-n2c(C)cc(C(=O)CN3C(=O)NC4(CCc5ccccc54)C3=O)c2C)cc1 (stereo not given)",
    "READOUT_UNITS": "%",
    "activity change": -14.9
  },
  {
    "COMPOUND": "O=c1ccc2c(-c3ccccc3S(=O)(=O)O)c3ccc(O)c(O)c3oc-2c1O",
    "READOUT_UNITS": "%",
    "activity change": -87.1
  },
  {
    "COMPOUND": "Cc1ccc(-n2c(SCC(=O)NCCC3=CCCCC3)nc3n[nH]c(C)c3c2=N)cc1Cl",
    "READOUT_UNITS": "%",
    "activity change": -17.6
  },
  {
    "COMPOUND": "CCOc1cc(/C=N/NC(=O)c2cccc(S(=O)(=O)N3CCOCC3)c2)ccc1OCC(=O)N(C)C",
    "READOUT_UNITS": "%",
    "activity change": -8.33
  },
  {
    "COMPOUND": "Cc1cc(OCc2cc(C(=O)NCc3cc(C(C)C)no3)no2)cc(C)c1Cl",
    "READOUT_UNITS": "%",
    "activity change": 14
  },
  {
    "COMPOUND": "CCCC(C(=O)OCCN(CC)CC)(c1ccccc1)c1ccccc1",
    "READOUT_UNITS": "%",
    "activity change": -20.2
  },
  {
    "COMPOUND": "Cc1cc([N+](=O)[O-])c(NC2CCCCC2)c([N+](=O)[O-])c1",
    "READOUT_UNITS": "%",
    "activity change": -69.3
  },
  {
    "COMPOUND": "Cc1ccc2c(c1)c1ncnc(N3CCc4ccccc4C3)c1n2C",
    "READOUT_UNITS": "%",
    "activity change": -7.75
  },
  {
    "COMPOUND": "O=C(NCCN1CCOCC1)Nc1cccc(Cl)c1",
    "READOUT_UNITS": "%",
    "activity change": 3.67
  },
  {
    "COMPOUND": "O=C(NCc1ccccc1)C(c1ccc(F)cc1)N1CCN(C(=O)C2CCCO2)CC1 (stereo not given)",
    "READOUT_UNITS": "%",
    "activity change": 20.6
  },
  {
    "COMPOUND": "COC(=O)[C@]12CCCCC=C1N(CCC1=CCCCC1)C(=O)[C@H](CC(=O)NCC1CCCCC1)C2",
    "READOUT_UNITS": "%",
    "activity change": -2.3
  },
  {
    "COMPOUND": "Cc1nc2ccccc2n1CC(=O)N/N=C/c1cccs1",
    "READOUT_UNITS": "%",
    "activity change": -11.4
  },
  {
    "COMPOUND": "Cn1c(=O)c2c(nc(N/N=C/c3cccs3)n2Cc2ccc(Br)cc2)n(C)c1=O",
    "READOUT_UNITS": "%",
    "activity change": 29.6
  },
  {
    "COMPOUND": "COC(=O)[C@@]12C[C@@H](CC(=O)NCCCCc3ccccc3)C(=O)N(CCc3ccc(OC)c(OC)c3)C1=CCC(C)(C)C2",
    "READOUT_UNITS": "%",
    "activity change": -8.99
  },
  {
    "COMPOUND": "COC(=O)c1ccc2nc(-c3ccccc3)c(Cc3ccc(OC)cc3C)n2c1",
    "READOUT_UNITS": "%",
    "activity change": 0.0747
  },
  {
    "COMPOUND": "COc1ccc(NC(=O)C(c2ccncc2)n2c(=O)c(-c3cc4ccccc4[nH]3)nc3ccccc32)cc1 (stereo not given)",
    "READOUT_UNITS": "%",
    "activity change": 18.4
  },
  {
    "COMPOUND": "O=C(COc1ccc(Cl)cc1)NCc1nnc(SCC(=O)NCC2CCCO2)o1 (stereo not given)",
    "READOUT_UNITS": "%",
    "activity change": 17.7
  },
  {
    "COMPOUND": "Cc1ncc(CO)c(/C=N/NC(=O)c2cccc(S(=O)(=O)N3CCCC3)c2)c1O",
    "READOUT_UNITS": "%",
    "activity change": -82.4
  }
]

====

SYSTEM_UNDER_TEST: Homeobox protein SIX1 (Homo sapiens) + Protein phosphatase EYA2 (Homo sapiens) (UniProt Q15475+O00167)
ASSAY_REMARKS: qHTS Assay for Inhibitors of the Six1/Eya2 Interaction; note: % is set by controls: 0 for no effect and ±100 for the full control effect
ASSAY_SETUP: AlphaScreen GST-Six1/His-Eya2 binding, biochemical; stronger effect = lower value
Description: Its expression is low or undetectable in normal adult breast tissue but the gene is over-expressed in 50% of primary breast tumors and 90% of metastatic lesions. […] The first step of the 5 uL AlphaScreen assay is to dispense assay buffer (50 mM Tris, pH 8.0, 300 mM NaCl, 0.05% BSA, 0.02% Tween 20, 1 mM TCEP) into a Greiner 1536 white solid bottom microtiter plate (789175-F). […] The plate is read using a Perkin Elmer Envision using an AlphaScreen protocol.
The whole screen tested about 360,000 compounds, of which about 2,000 (0.56%) were called active. About 2% were inconclusive and are not listed. The full list was thinned out, with actives kept by preference.

[
  {
    "COMPOUND": "Cc1nc2c(OCc3ccc(Cl)cc3Cl)cccn2c1N(C)CC1CC1",
    "activity change [%]": -5.16
  },
  {
    "COMPOUND": "Cc1ccc(S(=O)(=O)N[C@H](CO)C(C)C)cc1",
    "activity change [%]": 4.31
  },
  {
    "COMPOUND": "CC(=O)N1Cc2cc(C(=O)NCc3cccc(F)c3)nc(-c3cccc(C4=CCCC4)c3)c2[C@H]1CCO",
    "activity change [%]": -15.8
  },
  {
    "COMPOUND": "Cc1nc2ccccc2c(C(=O)O)c1-c1ccccn1",
    "activity change [%]": 7.28
  },
  {
    "COMPOUND": "CC(=O)/C(=N\\Nc1ccc(Cl)cc1Cl)Sc1cccc2cccnc12",
    "activity change [%]": -91.1
  },
  {
    "COMPOUND": "CC(=O)Nc1ccc(NC(=O)C(NS(=O)(=O)c2ccc3c(c2)OCCO3)C(C)C)cc1 (stereo unspecified)",
    "activity change [%]": 0.533
  },
  {
    "COMPOUND": "CCOC(=O)[C@]12CCC=C1N(CCC1=CCCCC1)C(=O)[C@H](CC(=O)NCc1ccc(C)o1)C2",
    "activity change [%]": -7.25
  },
  {
    "COMPOUND": "Clc1ccc(-c2nc3ccccn3c2CN2CCSCC2)cc1",
    "activity change [%]": -7.53
  },
  {
    "COMPOUND": "CC1(C(=O)Nc2ccc3c(c2)OCCO3)CSCC(=O)N1CCOc1ccccc1 (stereo unspecified)",
    "activity change [%]": -5.39
  },
  {
    "COMPOUND": "Cc1ccc(/C=C/C(=O)OCC(=O)Nc2cccnc2Cl)cc1",
    "activity change [%]": -0.924
  },
  {
    "COMPOUND": "CCOC(=O)[C@]12CCCC=C1N(CCC1=CCCCC1)C(=O)[C@H](CC(=O)N1CCOCC1)C2",
    "activity change [%]": 8.54
  },
  {
    "COMPOUND": "CO[C@@H]1CN(C)C(=O)c2cc(NC(=O)C3CC3)ccc2OC[C@H](C)N(C(=O)CN2CCOCC2)C[C@@H]1C",
    "activity change [%]": -0.378
  },
  {
    "COMPOUND": "C/C(=N\\Nc1cccc(C(=O)O)c1)c1ccc2c(c1)Nc1ccccc1S2",
    "activity change [%]": -18.9
  },
  {
    "COMPOUND": "CCCNC(=O)c1cc(C2CCCCN2S(=O)(=O)c2cn(C)cn2)on1 (stereo unspecified)",
    "activity change [%]": 0.952
  },
  {
    "COMPOUND": "O=C(CSc1nnc(-c2ccncc2)o1)Nc1cccc(Cl)c1",
    "activity change [%]": -1.81
  },
  {
    "COMPOUND": "COC(=O)[C@]12CCCCC=C1N(Cc1ccc3c(c1)OCO3)C(=O)[C@H](CC(=O)N1CCOCC1)C2",
    "activity change [%]": 7.68
  },
  {
    "COMPOUND": "C=CCC[C@H](CCCCC)OC(=O)/C=C/[C@H](O)[C@@H](O)C[C@@H](O)CC=C",
    "activity change [%]": 9.69
  },
  {
    "COMPOUND": "COC(=O)[C@@]12C[C@@H](CC(=O)N3CCC(c4ccccc4)CC3)C(=O)N(Cc3ccccc3)C1=CCC(C)(C)C2",
    "activity change [%]": -15.9
  },
  {
    "COMPOUND": "COc1ccc(C(O)C(O)(C(=O)OC(C)C)c2ccc(C)cc2)cc1 (stereo unspecified)",
    "activity change [%]": 10.6
  },
  {
    "COMPOUND": "Cc1cc(NC(=O)CSc2ncc(C(F)(F)F)cc2Cl)no1",
    "activity change [%]": 1.15
  },
  {
    "COMPOUND": "COc1ccc(NC(=O)C/C(C)=N/NC(=O)c2cnccn2)cc1Cl",
    "activity change [%]": -8.49
  },
  {
    "COMPOUND": "Cc1ccc(S(=O)(=O)N(C)c2ccc(OCC(=O)OCc3ccc(C#N)cc3)cc2)cc1",
    "activity change [%]": 5.43
  },
  {
    "COMPOUND": "Cc1ccc(Cn2cc(CN3CC(N4CCN(C)CC4)CS3(=O)=O)nn2)cc1 (stereo unspecified)",
    "activity change [%]": 2.69
  },
  {
    "COMPOUND": "COc1cccc(CNC(=O)C2CCN(S(=O)(=O)c3cccc4cccnc34)CC2)c1",
    "activity change [%]": -4.19
  },
  {
    "COMPOUND": "CC1CCN(S(=O)(=O)c2ccc3[nH]c(=O)ccc3c2)CC1",
    "activity change [%]": -0.516
  },
  {
    "COMPOUND": "Cc1cc(C)n2c(Nc3c(C)cccc3C)c(CCc3ccccc3)nc2n1",
    "activity change [%]": -0.972
  },
  {
    "COMPOUND": "CC(C)(C)Nc1nc(-c2ccccn2)nc2ccccc12",
    "activity change [%]": -89.4
  },
  {
    "COMPOUND": "COCCNC(=O)CSc1nc(N)c(NC(=O)c2ccco2)c(=O)[nH]1",
    "activity change [%]": 2.42
  },
  {
    "COMPOUND": "CCC(C(=O)Nc1c(C)cccc1C)n1c(-c2cc(C)cs2)nc2ccccc21 (stereo unspecified)",
    "activity change [%]": 4.28
  },
  {
    "COMPOUND": "COC(=O)[C@]12CCCCC=C1N(Cc1ccc(Cl)cc1Cl)C(=O)[C@H](CC(=O)NCc1cccc3ccccc13)C2",
    "activity change [%]": -10.1
  },
  {
    "COMPOUND": "Cc1cc(OCCOc2cccc3cccnc23)c(C)cc1Cl",
    "activity change [%]": -4.24
  },
  {
    "COMPOUND": "COC(=O)C[C@@H]1C=C[C@@H](NC(=O)c2ccc3c(c2)OCO3)[C@@H](CO)O1",
    "activity change [%]": -3.63
  },
  {
    "COMPOUND": "CC1(C(=O)Nc2ccc3c(c2)OCCO3)CN(S(C)(=O)=O)CC(=O)N1Cc1cccc(F)c1 (stereo unspecified)",
    "activity change [%]": 6.88
  },
  {
    "COMPOUND": "Cc1[nH]c2ccccc2c1C(=O)c1cc([C@H](NC(=O)OC(C)(C)C)C(C)C)sc1N",
    "activity change [%]": -28
  },
  {
    "COMPOUND": "CCC(C)CN1C(=O)CN(S(C)(=O)=O)CC1(C)C(=O)Nc1ccc2c(c1)OCCO2 (stereo unspecified)",
    "activity change [%]": 16.6
  },
  {
    "COMPOUND": "Cc1cc(C)nc(N/N=C/c2c(CO)cnc(C)c2O)n1",
    "activity change [%]": -75.1
  },
  {
    "COMPOUND": "COC(=O)c1ccc2nc(-c3cccc(Br)c3)c(Cc3ccccc3C(F)(F)F)n2c1",
    "activity change [%]": -10.3
  },
  {
    "COMPOUND": "CNc1ccc(NC(C)=O)cc1[N+](=O)[O-]",
    "activity change [%]": -0.656
  },
  {
    "COMPOUND": "Nc1nc2ncccn2c1-c1ccccc1",
    "activity change [%]": 3.63
  },
  {
    "COMPOUND": "O=C(Nc1ccccc1F)C1C2C=CC3(O2)C1C(=O)N(c1cccnc1)C3C(=O)NC1CCCCC1 (stereo unspecified)",
    "activity change [%]": 4.1
  },
  {
    "COMPOUND": "O=C1NC[C@@H](CCCCN2CCN(CCc3ccc(O)cc3)C(=O)C2=O)N(CC2CCCCC2)C1=O",
    "activity change [%]": 3.55
  }
]
